Below, each of the compounds is paired with its reported IC50 value.
- system_name: RET(V804M) mutant (Homo sapiens, UniProt P07949, V804M)
- Construct: purchased Reaction Biology Corporation (contract assay; enzyme is the CRO's)
- Sequence (P07949 29-1114 V804M): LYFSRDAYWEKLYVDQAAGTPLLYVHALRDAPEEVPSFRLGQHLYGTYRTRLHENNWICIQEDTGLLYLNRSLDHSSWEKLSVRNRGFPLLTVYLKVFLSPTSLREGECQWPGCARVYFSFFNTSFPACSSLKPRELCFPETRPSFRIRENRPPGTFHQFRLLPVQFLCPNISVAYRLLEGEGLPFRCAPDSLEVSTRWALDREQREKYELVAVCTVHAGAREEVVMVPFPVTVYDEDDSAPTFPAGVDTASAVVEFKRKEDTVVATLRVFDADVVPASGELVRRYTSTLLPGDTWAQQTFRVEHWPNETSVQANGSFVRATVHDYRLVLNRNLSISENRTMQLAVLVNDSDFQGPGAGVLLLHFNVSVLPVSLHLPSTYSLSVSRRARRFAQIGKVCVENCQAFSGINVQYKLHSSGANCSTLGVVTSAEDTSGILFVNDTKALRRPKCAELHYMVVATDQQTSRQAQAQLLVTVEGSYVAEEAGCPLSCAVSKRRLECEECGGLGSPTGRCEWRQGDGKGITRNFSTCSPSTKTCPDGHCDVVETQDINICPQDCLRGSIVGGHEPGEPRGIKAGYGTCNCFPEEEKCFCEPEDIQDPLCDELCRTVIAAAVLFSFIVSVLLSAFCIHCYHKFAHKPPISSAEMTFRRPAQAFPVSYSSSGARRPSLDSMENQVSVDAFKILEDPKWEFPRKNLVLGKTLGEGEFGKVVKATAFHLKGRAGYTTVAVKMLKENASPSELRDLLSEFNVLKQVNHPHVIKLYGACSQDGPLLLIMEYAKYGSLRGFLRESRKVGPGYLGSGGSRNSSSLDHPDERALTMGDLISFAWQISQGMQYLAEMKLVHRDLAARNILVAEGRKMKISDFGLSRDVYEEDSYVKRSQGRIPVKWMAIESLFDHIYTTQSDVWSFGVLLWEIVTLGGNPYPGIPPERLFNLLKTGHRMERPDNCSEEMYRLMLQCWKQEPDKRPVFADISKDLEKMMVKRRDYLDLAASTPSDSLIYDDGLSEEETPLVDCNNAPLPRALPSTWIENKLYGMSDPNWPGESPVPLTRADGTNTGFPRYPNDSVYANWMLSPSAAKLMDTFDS
- experimental_protocol: Biochemical IC50 of RET(V804M) mutant (33P-ATP filter binding, Reaction Biology)
- test_parameters: RET(V804M) mutant; ATP 1 μM; 33P-ATP filter binding; read-out: Biochemical IC50 RET (V804M)
Respond with the bare value in nM.

Some entries whose results are on file:
structure_notation=Cn1cc(-c2cc(-c3ccc(N4CCC(N=[S@](C)(=O)c5ccccc5)CC4)nc3)c3c(C#N)cnn3c2)cn1 measure=IC50 value=4.72
structure_notation=CC(C)(O)COc1cc(-c2ccc(N3CCC(N=S(C)(C)=O)CC3)nc2)c2c(C#N)cnn2c1 measure=IC50 value=63.6
structure_notation=Cn1cc(-c2cn3ncc(C#N)c3c(-c3ccc(N4CCC(N=[S@@](C)(=O)c5ccccc5)CC4)nc3)n2)cn1 measure=IC50 value=26.3
structure_notation=CC(C)(O)COc1cc(-c2ccc(N3CCS(=O)(=NC4CCNCC4)CC3)nc2)c2c(C#N)cnn2c1 measure=IC50 value=165
structure_notation=CC(C)CN=S1(=O)CCN(c2ccc(-c3cc(OCC(C)(C)O)cn4ncc(C#N)c34)cn2)CC1 measure=IC50 value=55.7

Can you look up IC50 on RET(V804M) mutant (Homo sapiens, UniProt P07949, V804M) for CC(C)(O)COc1cc(-c2ccc(N3CCC(N=[S@@](C)(=O)c4ccccc4)CC3)nc2)c2c(C#N)cnn2c1 ? 138

Can you look up IC50 on RET(V804M) mutant (Homo sapiens, UniProt P07949, V804M) for COc1ccc(N=S2(=O)CCN(c3ccc(-c4cc(-c5cnn(C)c5)cn5ncc(C#N)c45)cn3)CC2)cn1 ? 1.72

====

- system_name: wild-type RET kinase (Homo sapiens, UniProt P07949)
- Construct: purchased Reaction Biology Corporation (contract assay; enzyme is the CRO's)
- Sequence (P07949 29-1114): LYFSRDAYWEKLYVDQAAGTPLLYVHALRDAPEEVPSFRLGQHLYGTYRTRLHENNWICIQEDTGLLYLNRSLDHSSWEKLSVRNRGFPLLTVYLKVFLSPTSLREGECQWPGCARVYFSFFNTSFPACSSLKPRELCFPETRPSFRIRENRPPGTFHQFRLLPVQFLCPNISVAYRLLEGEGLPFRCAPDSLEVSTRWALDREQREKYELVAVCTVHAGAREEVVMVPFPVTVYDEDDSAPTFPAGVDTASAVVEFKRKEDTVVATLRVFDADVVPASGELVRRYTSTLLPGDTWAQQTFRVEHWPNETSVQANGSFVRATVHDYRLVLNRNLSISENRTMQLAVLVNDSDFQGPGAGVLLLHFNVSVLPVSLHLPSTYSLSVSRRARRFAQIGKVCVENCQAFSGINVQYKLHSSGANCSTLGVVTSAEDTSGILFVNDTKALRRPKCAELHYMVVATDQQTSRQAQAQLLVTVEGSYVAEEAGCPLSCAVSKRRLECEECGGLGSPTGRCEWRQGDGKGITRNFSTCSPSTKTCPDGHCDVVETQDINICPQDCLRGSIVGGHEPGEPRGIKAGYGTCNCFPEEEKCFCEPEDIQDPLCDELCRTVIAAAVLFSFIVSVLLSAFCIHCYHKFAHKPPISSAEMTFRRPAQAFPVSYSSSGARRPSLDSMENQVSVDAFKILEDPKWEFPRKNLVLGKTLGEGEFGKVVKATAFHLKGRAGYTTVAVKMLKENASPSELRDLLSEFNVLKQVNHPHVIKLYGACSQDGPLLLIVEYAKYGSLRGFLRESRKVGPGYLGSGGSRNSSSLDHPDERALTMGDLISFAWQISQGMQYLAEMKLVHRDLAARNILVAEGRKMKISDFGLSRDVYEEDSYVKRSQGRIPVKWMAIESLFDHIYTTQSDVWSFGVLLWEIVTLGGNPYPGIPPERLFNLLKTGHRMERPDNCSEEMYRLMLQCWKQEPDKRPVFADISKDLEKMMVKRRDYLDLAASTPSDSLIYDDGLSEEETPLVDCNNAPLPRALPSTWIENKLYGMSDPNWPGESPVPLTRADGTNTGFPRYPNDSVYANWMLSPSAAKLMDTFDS
- experimental_protocol: Biochemical IC50 of wild-type RET kinase (33P-ATP filter binding, Reaction Biology)
- test_parameters: wild-type RET kinase; ATP 1 μM; 33P-ATP filter binding; read-out: Biochemical IC50 RET
Below, each of the molecules is paired with its reported pIC50 value.
# reply with the number alone; pIC50 is -log10 of concentration in mol/L

Some entries whose results are on file:
structure_notation=CC(C)(O)COc1cc(-c2ccc(N3CCC(N=S(C)(C)=O)CC3)nc2)c2c(C#N)cnn2c1 value=8.02
structure_notation=CC(C)CN=S1(=O)CCN(c2ccc(-c3cc(OCC(C)(C)O)cn4ncc(C#N)c34)cn2)CC1 value=8.17
structure_notation=COc1ccc(N=S2(=O)CCN(c3ccc(-c4cc(-c5cnn(C)c5)cn5ncc(C#N)c45)cn3)CC2)cn1 value=9.12

Need pIC50, item CC(C)(O)COc1cc(-c2ccc(N3CCS(=N)(=O)CC3)nc2)c2c(C#N)cnn2c1 8.37
